Biological target: T1, ARG2 (Homo sapiens, UniProt P78540)
T1 sequence (P78540 23-354): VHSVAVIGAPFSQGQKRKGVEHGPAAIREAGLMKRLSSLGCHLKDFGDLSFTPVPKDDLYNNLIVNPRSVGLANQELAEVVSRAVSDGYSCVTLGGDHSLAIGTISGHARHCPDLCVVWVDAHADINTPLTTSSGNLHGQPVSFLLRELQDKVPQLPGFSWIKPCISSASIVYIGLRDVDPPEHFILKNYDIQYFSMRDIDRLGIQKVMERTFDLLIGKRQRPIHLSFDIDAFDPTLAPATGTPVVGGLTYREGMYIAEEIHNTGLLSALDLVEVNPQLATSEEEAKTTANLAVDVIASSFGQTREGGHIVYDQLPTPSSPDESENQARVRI
Experiment: T cell proliferation assay (BrdU, 96 hours) with exogenous ARG2, improved variant IgGs
Type: cell-based
Conditions: In Absence of rhARG2; 96 hours; hIgG1
outcomeMeasure: EC50

Report EC50, nothing else, for this molecule: C0021061: anti-ARG2 antibody, first generation lead, VH SEQ ID NO: 62, VL SEQ ID NO: 67 (antibody, listed as Homo sapiens, V domains shown, C0021061) VH: EVQLLESGGGLVQPGGSLRLSCAASGFTFSSYAMSWVRQAPGKGLEWVSAKPTDAGSTYYADSVKGRFTISRDNSKNTLYLQMNSLRAEDTAVYYCARLRADLGLYMDLWGRGTLVTVSS VL: QSVLTQPPSVSAAPGQKVTISCSGSSSNIGNHYVSWYQQLPGTAPKLLIYNTVYPKSGIPDRFSGSKSGTSATLGITGLQTGDEADYYCGTWDSSLSALVFGGGTKLTVL
< 900 pM
